Where do these numbers come from? They come from patent US6685617B1.

# pIC50 listing for each entry below
assay_system: α4β1 integrin (Jurkat cell adhesion to immobilized CS-1 derived peptide CLHPGEILDVPST) (Homo sapiens, UniProt P05556+P13612)
Construct: 100 μl of Jurkat cells (2.5×10^6 cells/ml) in DMEM plus BSA
Sequence (P13612 34-1032): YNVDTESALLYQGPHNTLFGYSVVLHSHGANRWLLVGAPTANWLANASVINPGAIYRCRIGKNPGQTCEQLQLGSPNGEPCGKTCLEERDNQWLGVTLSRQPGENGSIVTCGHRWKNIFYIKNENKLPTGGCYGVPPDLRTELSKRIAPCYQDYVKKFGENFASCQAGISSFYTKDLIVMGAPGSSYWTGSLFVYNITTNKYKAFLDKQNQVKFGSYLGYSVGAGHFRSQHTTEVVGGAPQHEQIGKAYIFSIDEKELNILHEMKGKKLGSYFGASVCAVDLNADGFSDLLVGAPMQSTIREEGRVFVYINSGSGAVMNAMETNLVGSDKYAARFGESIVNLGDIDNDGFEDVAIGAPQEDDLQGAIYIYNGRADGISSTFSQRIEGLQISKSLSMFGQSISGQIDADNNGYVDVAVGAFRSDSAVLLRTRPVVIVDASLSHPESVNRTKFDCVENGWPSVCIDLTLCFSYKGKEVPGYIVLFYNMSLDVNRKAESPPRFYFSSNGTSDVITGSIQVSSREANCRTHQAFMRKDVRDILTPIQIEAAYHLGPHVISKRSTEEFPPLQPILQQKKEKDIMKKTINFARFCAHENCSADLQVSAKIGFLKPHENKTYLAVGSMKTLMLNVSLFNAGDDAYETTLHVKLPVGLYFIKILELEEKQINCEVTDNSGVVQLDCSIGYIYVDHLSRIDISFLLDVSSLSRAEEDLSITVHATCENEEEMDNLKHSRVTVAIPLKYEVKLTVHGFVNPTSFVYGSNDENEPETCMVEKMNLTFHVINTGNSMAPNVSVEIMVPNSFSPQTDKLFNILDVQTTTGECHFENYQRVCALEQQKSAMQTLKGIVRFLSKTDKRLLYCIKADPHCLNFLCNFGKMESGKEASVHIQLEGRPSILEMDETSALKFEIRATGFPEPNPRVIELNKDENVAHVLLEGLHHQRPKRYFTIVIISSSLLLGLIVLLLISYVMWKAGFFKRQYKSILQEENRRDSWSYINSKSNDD
Sequence (P05556 21-798): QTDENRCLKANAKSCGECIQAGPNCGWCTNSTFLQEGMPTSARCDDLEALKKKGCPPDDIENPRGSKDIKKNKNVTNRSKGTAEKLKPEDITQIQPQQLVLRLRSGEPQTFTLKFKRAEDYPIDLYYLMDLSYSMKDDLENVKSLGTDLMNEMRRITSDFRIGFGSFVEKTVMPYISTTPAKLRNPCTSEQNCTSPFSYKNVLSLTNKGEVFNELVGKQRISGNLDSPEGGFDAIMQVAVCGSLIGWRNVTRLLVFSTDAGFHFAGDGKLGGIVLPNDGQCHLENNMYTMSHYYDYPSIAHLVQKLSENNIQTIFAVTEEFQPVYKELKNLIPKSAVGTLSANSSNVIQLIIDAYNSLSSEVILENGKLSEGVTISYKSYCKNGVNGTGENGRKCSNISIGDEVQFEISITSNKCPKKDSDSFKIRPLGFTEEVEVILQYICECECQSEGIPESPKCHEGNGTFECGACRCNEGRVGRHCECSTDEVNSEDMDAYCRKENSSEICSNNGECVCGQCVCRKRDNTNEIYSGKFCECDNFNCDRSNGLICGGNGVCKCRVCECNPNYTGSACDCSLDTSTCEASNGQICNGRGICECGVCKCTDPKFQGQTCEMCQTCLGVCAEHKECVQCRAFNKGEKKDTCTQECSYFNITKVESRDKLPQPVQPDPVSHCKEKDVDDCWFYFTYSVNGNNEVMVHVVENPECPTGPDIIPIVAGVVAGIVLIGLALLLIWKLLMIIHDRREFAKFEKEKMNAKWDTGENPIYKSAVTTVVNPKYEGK
assay_summary: Jurkat-CS-1 assay
measurement_parameters: Jurkat cells on CS-1 peptide coated plates; read-out: JK/CS-1 (Jurkat CS-1 Assay IC50 value range)
Source text: The CS-1 derived peptide, CLHPGEILDVPST, and the scrambled control peptide, CLHGPIELVSDPT, were synthesized on a Beckman 990 synthesizer using t-Boc methodology. The peptides were immobilized onto microtiter plates using the heterobifunctional crosslinker 3-(2-pyridyldithio)propionic acid N-hydroxysuccinimide ester (SPDP) as reported by Pierschbacher et al., Proc. Natl. Acad. USA, 80:1224-1227 (1983). […]
pIC50: −log10 of the molar value.

Would you please look over these solved cases?
Req: Looking for the measured pIC50 of O=C(O)CCC(=O)N1CCSCCC1C(=O)N[C@@H](Cc1ccc(NC(=O)c2c(Cl)cccc2Cl)cc1)C(=O)O (some centres unmarked) , can you help?
Resp: 6.12 to 7.30

Req: Give the measured pIC50 of CN1CCN(CCOC(=O)N2CSC[C@@H]2C(=O)N[C@@H](Cc2ccc(OCc3c(Cl)cccc3Cl)cc2)C(N)=O)CC1 .
Resp: 6.12 to 7.30

Req: Give its pIC50 value. Item: NC(=O)[C@H](Cc1ccc(OCc2c(Cl)cccc2Cl)cc1)NC(=O)[C@H]1CSCN1C(=O)OCCN1CCCC1
Resp: 6.12 to 7.30

Req: If you can, please state the reported pIC50 value of O=C(Nc1ccc(C[C@H](NC(=O)[C@H]2CSCN2C(=O)C2CCCO2)C(=O)O)cc1)c1c(Cl)cccc1Cl (some centres unmarked) .
Resp: ≥ 7.30

New cases:
Req: I am curious: what pIC50 value has been reported for O=C(O)c1cccc(C(=O)N2CSC[C@H]2C(=O)N[C@@H](Cc2ccc(NC(=O)c3c(Cl)cccc3Cl)cc2)C(=O)O)n1 ?
Resp: 6.12 to 7.30

###

assay_system: α4β1 integrin (Jurkat T-cell adhesion to IL-1 stimulated endothelial cell monolayers) (Homo sapiens, UniProt P05556+P13612)
Construct: a T-cell line, Jurkat, known to express the α4β1 integrin
Sequence (P13612 34-1032): as the sequence (P13612 34-1032) above
Sequence (P05556 21-798): as the sequence (P05556 21-798) above
assay_summary: Jurkat-endothelial cell adhesion assay (Jurkat EC)
measurement_parameters: Jurkat cells on IL-1 stimulated human umbilical vein endothelial cells; read-out: JK/EC (Jurkat EC Assay IC50 value range)
This section presents compounds with their documented IC50 values.

Some compounds with recorded IC50:
Req: Quick check: IC50 of O=C(O)CC1(CC(=O)N2CCCC(C(=O)N[C@@H](Cc3ccc(NC(=O)c4c(Cl)cccc4Cl)cc3)C(=O)O)C2)CCCC1 (some centres unmarked) [Example 195] ?
Resp: ≥ 1 µM

Req: Reported IC50 for COc1ccc(C(=O)N2CCC(C(=O)N[C@@H](Cc3ccc(NC(=O)c4c(Cl)cccc4Cl)cc3)C(=O)O)CC2)cc1OC [Example 218] : what is it?
Resp: ≥ 1 µM

Req: Quick check: IC50 of O=C(O)CCCC(=O)N1CSC[C@@H]1C(=O)N[C@@H](Cc1ccc(NC(=O)c2c(Cl)cccc2Cl)cc1)C(=O)O (relative stereo) [Example 60] ?
Resp: ≤ 0.25 µM

Req: Which IC50 value is on record for CC(=O)CCC(=O)N1CCCC[C@H]1C(=O)N[C@@H](Cc1ccc(NC(=O)c2c(Cl)cccc2Cl)cc1)C(=O)O [Example 179] ?
Resp: 0.25 to 1 µM

Req: Any idea what IC50 was measured for O=C(O)c1ccc2cc(C(=O)N3CCCC(C(=O)N[C@@H](Cc4ccc(NC(=O)c5c(Cl)cccc5Cl)cc4)C(=O)O)C3)ccc2c1 (some centres unmarked) [Example 206] ?
Resp: 0.25 to 1 µM

***
Req: Please look up its IC50: O=C(O)/C=C\C(=O)N1CCC[C@H]1C(=O)N[C@@H](Cc1ccc(NC(=O)c2c(Cl)cccc2Cl)cc1)C(=O)O [Example 227]
Resp: ≥ 1 µM

Req: // returns reported IC50 for input COC(=O)[C@H](Cc1ccc(OCc2c(Cl)cccc2Cl)cc1)NC(=O)[C@H]1CSCN1C(C)=O [Example 65]
Resp: ≥ 1 µM

Req: Dear colleague, I am looking for the recorded IC50 of the following compound: CC(C)(CC(=O)O)CC(=O)N1CCCCC1C(=O)N[C@@H](Cc1ccc(NC(=O)c2c(Cl)cccc2Cl)cc1)C(=O)O (some centres unmarked) [Example 169]
Resp: ≥ 1 µM
